Measured values drawn from PubChem BioAssay AID2060331 for this set.

Test system: Hs578T multi-cell spheroids, viability
Test: Anticancer human tumor Hs578T cell line growth inhibition [IpAb];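 further: drug exposure lasted 7 days before readout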
Conditions: second compound 1 µM; first compound 1 µM; active compounds read low
endpoint_name: viability, T/C

compound | target | result
Cn1ncc(Cl)c1-c1cc(C(=O)NC(CN)Cc2cccc(F)c2)sc1Cl (stereo unspecified) + CCN1CCN(Cc2ccc(Nc3ncc(F)c(-c4cc(F)c5nc(C)n(C(C)C)c5c4)n3)nc2)CC1 | Hs578T multi-cell spheroids, viability | 60.1%
Cn1nccc1Nc1nccc(-c2ccn(C(CO)c3ccc(Cl)c(F)c3)c(=O)c2)n1 (stereo unspecified) + CC(C)NCC(C(=O)N1CCN(c2ncnc3c2C(C)CC3O)CC1)c1ccc(Cl)cc1 | Hs578T multi-cell spheroids, viability | 54.3%
CCCS(=O)(=O)Nc1ccc(F)c(C(=O)c2c[nH]c3ncc(-c4ccc(Cl)cc4)cc23)c1F + CCN1CCN(Cc2ccc(Nc3ncc(F)c(-c4cc(F)c5nc(C)n(C(C)C)c5c4)n3)nc2)CC1 | Hs578T multi-cell spheroids, viability | 104%
Cn1nccc1Nc1nccc(-c2ccn(C(CO)c3ccc(Cl)c(F)c3)c(=O)c2)n1 (stereo unspecified) + CCN1CCN(Cc2ccc(Nc3ncc(F)c(-c4cc(F)c5nc(C)n(C(C)C)c5c4)n3)nc2)CC1 | Hs578T multi-cell spheroids, viability | 58.8%
COc1c(OCCCN2CCOCC2)ccc2c3n(c(=NC(=O)c4cnc(N)nc4)nc12)CCN3 + CC(C)NCC(C(=O)N1CCN(c2ncnc3c2C(C)CC3O)CC1)c1ccc(Cl)cc1 | Hs578T multi-cell spheroids, viability | 5.35%
Cc1nc(NC(=O)N2CCCC2C(N)=O)sc1-c1ccnc(C(C)(C)C(F)(F)F)c1 (stereo unspecified) + CC(C)NCC(C(=O)N1CCN(c2ncnc3c2C(C)CC3O)CC1)c1ccc(Cl)cc1 | Hs578T multi-cell spheroids, viability | 42.3%
C=CC(=O)N1CCN(c2nc(=O)n(-c3c(C)ccnc3C(C)C)c3nc(-c4c(O)cccc4F)c(F)cc23)C(C)C1 (stereo unspecified) + CC(C)NCC(C(=O)N1CCN(c2ncnc3c2C(C)CC3O)CC1)c1ccc(Cl)cc1 | Hs578T multi-cell spheroids, viability | 75.1%
C=CCn1c(=O)c2cnc(Nc3ccc(N4CCN(C)CC4)cc3)nc2n1-c1cccc(C(C)(C)O)n1 + CC(C)NCC(C(=O)N1CCN(c2ncnc3c2C(C)CC3O)CC1)c1ccc(Cl)cc1 | Hs578T multi-cell spheroids, viability | 25.7%
C=CC(=O)N1CCN(c2nc(=O)n(-c3c(C)ccnc3C(C)C)c3nc(-c4c(O)cccc4F)c(F)cc23)C(C)C1 (stereo unspecified) + CCN1CCN(Cc2ccc(Nc3ncc(F)c(-c4cc(F)c5nc(C)n(C(C)C)c5c4)n3)nc2)CC1 | Hs578T multi-cell spheroids, viability | 118%
CCCS(=O)(=O)Nc1ccc(F)c(C(=O)c2c[nH]c3ncc(-c4ccc(Cl)cc4)cc23)c1F + CC(C)NCC(C(=O)N1CCN(c2ncnc3c2C(C)CC3O)CC1)c1ccc(Cl)cc1 | Hs578T multi-cell spheroids, viability | 68.1%
CC1(C)CCC(CN2CCN(c3ccc(C(=O)NS(=O)(=O)c4ccc(NCC5CCOCC5)c([N+](=O)[O-])c4)c(Oc4cnc5[nH]ccc5c4)c3)CC2)=C(c2ccc(Cl)cc2)C1 + CCN1CCN(Cc2ccc(Nc3ncc(F)c(-c4cc(F)c5nc(C)n(C(C)C)c5c4)n3)nc2)CC1 | Hs578T multi-cell spheroids, viability | 96.7%
Cc1nc(NC(=O)N2CCCC2C(N)=O)sc1-c1ccnc(C(C)(C)C(F)(F)F)c1 (stereo unspecified) + CCN1CCN(Cc2ccc(Nc3ncc(F)c(-c4cc(F)c5nc(C)n(C(C)C)c5c4)n3)nc2)CC1 | Hs578T multi-cell spheroids, viability | 56.5%
Cn1ncc(Cl)c1-c1cc(C(=O)NC(CN)Cc2cccc(F)c2)sc1Cl (stereo unspecified) + CC(C)NCC(C(=O)N1CCN(c2ncnc3c2C(C)CC3O)CC1)c1ccc(Cl)cc1 | Hs578T multi-cell spheroids, viability | 51.6%
COc1c(OCCCN2CCOCC2)ccc2c3n(c(=NC(=O)c4cnc(N)nc4)nc12)CCN3 + CCN1CCN(Cc2ccc(Nc3ncc(F)c(-c4cc(F)c5nc(C)n(C(C)C)c5c4)n3)nc2)CC1 | Hs578T multi-cell spheroids, viability | 9.99%
CC1(C)CCC(CN2CCN(c3ccc(C(=O)NS(=O)(=O)c4ccc(NCC5CCOCC5)c([N+](=O)[O-])c4)c(Oc4cnc5[nH]ccc5c4)c3)CC2)=C(c2ccc(Cl)cc2)C1 + CC(C)NCC(C(=O)N1CCN(c2ncnc3c2C(C)CC3O)CC1)c1ccc(Cl)cc1 | Hs578T multi-cell spheroids, viability | 63%
C=CCn1c(=O)c2cnc(Nc3ccc(N4CCN(C)CC4)cc3)nc2n1-c1cccc(C(C)(C)O)n1 + CCN1CCN(Cc2ccc(Nc3ncc(F)c(-c4cc(F)c5nc(C)n(C(C)C)c5c4)n3)nc2)CC1 | Hs578T multi-cell spheroids, viability | 65%
